Source: paper PMC10618370

- targetOrTestSystem: E. coli MurC (Escherichia coli, UniProt P17952)
- Sequence (P17952 whole entry): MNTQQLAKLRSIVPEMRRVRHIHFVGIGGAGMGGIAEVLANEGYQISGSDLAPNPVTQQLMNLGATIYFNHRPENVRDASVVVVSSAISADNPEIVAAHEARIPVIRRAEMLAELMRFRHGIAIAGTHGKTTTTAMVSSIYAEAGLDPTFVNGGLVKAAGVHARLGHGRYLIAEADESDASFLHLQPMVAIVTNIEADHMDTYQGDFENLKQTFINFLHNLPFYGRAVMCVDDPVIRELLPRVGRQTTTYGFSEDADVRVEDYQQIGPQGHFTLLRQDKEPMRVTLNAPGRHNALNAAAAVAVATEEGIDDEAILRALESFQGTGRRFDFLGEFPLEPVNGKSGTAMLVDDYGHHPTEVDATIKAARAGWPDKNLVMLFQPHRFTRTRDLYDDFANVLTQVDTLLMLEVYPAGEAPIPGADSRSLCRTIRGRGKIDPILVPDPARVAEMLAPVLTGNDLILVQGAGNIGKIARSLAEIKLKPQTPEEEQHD
- assayOverview: MurC inhibition assay (Malachite green)
- Format: biochemical
- runConditions: 0.25 h; residual activity at 100 µM compound; mean ± SD of three independent experiments; read-out: RA (%) @ 100 µM MurC
remaining activity at 100 µM for assorted compounds
Give the value, in units of %, as a plain number.

Some solved entries appear below for comparison.
C[C@@H]1O[C@@H](Oc2c(-c3ccc(O)c(O)c3)oc3cc(O)cc(O)c3c2=O)[C@H](O)[C@H](O)[C@H]1O [Compound 10, quercitrin] :: 98
Cc1c(O)cc(O)c2c1O[C@H](c1ccccc1)CC2=O [Compound 4] :: 91

Q. Indicate the recorded remaining activity at 100 µM value for this compound: O=c1c(O[C@@H]2O[C@H](CO)[C@@H](O)[C@H](O)[C@H]2O)c(-c2ccc(O)c(O)c2)oc2cc(O)cc(O)c12 [Compound 8]
A. 95

Q. Indicate the recorded remaining activity at 100 µM value for this compound: CC1OC(OCC2OC(Oc3c(-c4ccc(O)c(O)c4)oc4cc(O)cc(O)c4c3=O)C(O)C(O)C2O)C(O)C(O)C1O (stereo not shown) [Compound 7]
A. 100

Q. Indicate the recorded remaining activity at 100 µM value for this compound: COc1cc(O)c(CC=C(C)C)c(O)c1C(=O)/C=C/c1ccc(O)cc1 [Compound 23, xanthohumol]
A. 86

Q. Indicate the recorded remaining activity at 100 µM value for this compound: O=c1c(O)c(-c2cc(O)c(O)c(O)c2)oc2cc(O)cc(O)c12 [Compound 12, myricetin]
A. 87

Q. Indicate the recorded remaining activity at 100 µM value for this compound: Oc1cc(O)c2c(c1)O[C@H](c1ccc(O)c(O)c1)[C@H](O)C2 [Compound 21, (–)-epicatechin]
A. 92

Q. Indicate the recorded remaining activity at 100 µM value for this compound: COc1cc(O)c(CC=C(C)C)c2c1C(=O)C[C@@H](c1ccc(O)cc1)O2 [Compound 2]
A. 86

Q. Indicate the recorded remaining activity at 100 µM value for this compound: CC1OC(Oc2c(-c3cc(O)c(O)c(O)c3)oc3cc(O)cc(O)c3c2=O)C(O)C(O)C1O (stereo not shown) [Compound 11]
A. 97

Q. Indicate the recorded remaining activity at 100 µM value for this compound: COc1cc([C@@H]2[C@H]3CO[C@@]4(O)C(=O)[C@@H]2C=C([C@H]2Oc5cc(O)cc(O)c5C(=O)[C@@H]2O)[C@@H]34)ccc1O [Compound 24, silydianin]
A. 100

Q. Indicate the recorded remaining activity at 100 µM value for this compound: O=c1c(O)c(-c2ccccc2)oc2cc(O)cc(O)c12 [Compound 16]
A. 100

Q. Indicate the recorded remaining activity at 100 µM value for this compound: O=C1C[C@@H](c2ccc(O)cc2)Oc2cc(O)cc(O)c21 [Compound 5]
A. 97

Q. Indicate the recorded remaining activity at 100 µM value for this compound: Oc1cc(O)c2c(c1)O[C@H](c1ccc(O)c(O)c1)[C@@H](O)C2 [Compound 22, (+)-catechin]
A. 100

----------
- targetOrTestSystem: MurF from E. coli (Escherichia coli)
- Sequence (P11880 whole entry): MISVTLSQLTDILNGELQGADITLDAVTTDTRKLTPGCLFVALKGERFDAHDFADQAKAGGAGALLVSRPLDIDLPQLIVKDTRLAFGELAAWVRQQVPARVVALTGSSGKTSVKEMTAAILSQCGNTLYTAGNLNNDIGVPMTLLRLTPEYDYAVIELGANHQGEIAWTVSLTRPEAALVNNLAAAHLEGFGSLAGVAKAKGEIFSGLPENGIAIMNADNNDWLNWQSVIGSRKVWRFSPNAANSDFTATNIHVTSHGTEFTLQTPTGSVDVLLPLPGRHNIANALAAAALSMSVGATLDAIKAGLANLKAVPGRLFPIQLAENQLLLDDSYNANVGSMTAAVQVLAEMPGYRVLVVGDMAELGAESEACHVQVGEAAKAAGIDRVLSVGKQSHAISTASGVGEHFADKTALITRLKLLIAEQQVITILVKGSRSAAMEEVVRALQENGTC
- assayOverview: Steady-state kinetic analysis of compound 21
- Type: biochemical
- runConditions: substrate D-Ala-D-Ala varied; ATP 500 µM, UM3DAP 100 µM fixed
observable: pKi
// pKi is dimensionless: -log10 of concentration (M)

Q. State, for MurF from E. coli (Escherichia coli), measured pKi of the compound listed here: Oc1cc(O)c2c(c1)O[C@H](c1ccc(O)c(O)c1)[C@H](O)C2 [Compound 21, (–)-epicatechin]
A. 4.24
